Structures can show the parent of a compound that is named as a salt.
Measured melting point by item

Check out these entries, answers already filled in.
COMPOUND	melting point
Cc1cc(-c2cc3ncccc3c(=O)[nH]2)cc(C)c1O (as salt: hydrochloride) [EXAMPLE 40]	> 350 °C
O=c1cc(-c2ccc(O)cc2)oc2ccncc12 [EXAMPLE 6]	306 to 308 °C
Oc1ccc(-c2cc3ccccc3cn2)cc1 [EXAMPLE 15, 4-Isoquinolin-3-yl-phenol]	218 to 219 °C
COc1cc(OC)c2c(=O)[nH]c(-c3cc(C)c(OCC(C)(C)O)c(C)c3)cc2c1 [EXAMPLE 42]	252 to 254 °C
CNc1nc(-c2ccc(O)c(F)c2)cc2c(OC)cccc12 [EXAMPLE 17]	185 to 187 °C

# melting point of O=c1cc(-c2ccc(O)c(Br)c2)oc2ncccc12 [EXAMPLE 32] = 267 to 272 °C

###

- Test system: MCP-1
- MEASUREMENT NOTES: MCP-1 ELISA on culture media of TNF-α stimulated HUVECs
- Format: cell-based
- RUN CONDITIONS: Homo sapiens, HUVEC, 10 uM, approx. 16 hours
MEASURED PARAMETER: inhibition at 10 µM

Check out these entries, answers already filled in.
MOLECULE	inhibition at 10 µM
CC(C)(Sc1cc(C(C)(C)C)c(O)c(C(C)(C)C)c1)Sc1cc(C(C)(C)C)c(O)c(C(C)(C)C)c1 [Probucol, probucol, reference compound]	15%
Cc1cc(-c2cc(=O)c3cccnc3o2)ccc1O	< 50%
O=C1C=C(c2ccc(O)cc2)C(=O)c2ccccc21 [EXAMPLE 20, 2-(4-Hydroxy-phenyl)-[1,4]naphthoquinone]	< 50%

# inhibition at 10 µM of `Cc1cccc2oc(-c3ccncc3)cc(=O)c12` = < 50%

###

- Test system: VCAM-1
- MEASUREMENT NOTES: VCAM-1 ELISA on lysates of TNF-α stimulated HUVECs
- Type: cell-based
- RUN CONDITIONS: Homo sapiens, HUVEC, 50 uM, approx. 16 hours
- Experimental: Compounds were dissolved in DMSO, aliquoted, and stored at −20° C. Cultured human vascular endothelial cells (HUVECs) were seeded in 96-well plates in complete EGM-2 media (˜100 μL/well); cells were plated at ˜2-3×10^5/mL, and were from passage 8 to 12. Cells were incubated overnight. […] Cell culture media was analyzed using an MCP-1 ELISA. […] Media optical density (at 490 nm) was determined after 1 hour. […]
Structures can show the parent of a compound that is named as a salt.
Measured inhibition at 50 µM by item

Check out these entries, answers already filled in.
MOLECULE	RESULT
COc1cc(OC)c2c(=O)[nH]c(-c3cc(C)c(OCCN4CCOCC4)c(C)c3)cc2c1	≥ 50%
O=c1cc(-c2cccnc2)oc2ccccc12	< 50%

Continue with the next molecule.
# inhibition at 50 µM of CN(C)Cc1ccc2c(=O)cc(-c3ccc(O)cc3)oc2n1 [EXAMPLE 26, dihydrochloride] = < 50%

###

Where a name gives a salt, the structure may show the parent alone.
Measured melting point by item

# melting point of Cc1cc(-c2cc(=O)c3cccnc3o2)ccc1O [EXAMPLE 5] = 300 to 302 °C

# melting point of Cc1cc(-c2cc(=O)c3cc(CN4CCCC4)cnc3o2)cc(C)c1O (as salt: hydrochloride) [EXAMPLE 33, dihydrochloride] = 337 to 338 °C

# melting point of O=c1cc(-c2cccnc2)oc2ccccc12 [EXAMPLE 25, 2-(pyridin-3-yl)-4H-chromen-4-one] = 122.8 to 124 °C

# melting point of COc1cc(OC)c2c(=O)cc(-c3ccncc3)oc2c1 (as salt: hydrochloride) [EXAMPLE 34] = 234 to 235 °C
